// values below are reported COUNTS of radiolabeled gp120 retained
- target.or.system: HIV-1LAI envelope gp120 (Human immunodeficiency virus type 1 group M subtype B, UniProt P03377)
- Type: binding
- experimental.parameters: Panel B, 15-mers and 18-mers of CD4; empty control 575
endpoint: COUNTS of radiolabeled gp120 retained (counts)

biopolymer.sequence	reported.result
DSDTYICEVEDQKEEVQL	961
TANSDTHLLQGQSLT	513
WDQGNFPLIIKNLKIEDS	626
TANSDTHLLQGQSLTLTL	891
WDQGNFPLIIKNLKI	534
TYICEVEDQKEEVQL	956
EDSDTYICEVEDQKEEVQ	788
QLLVFGLTANSDTHL	865
PLIIKNLKIEDSDTYICE	624
KNLKIEDSDTYICEV	562
CEVEDQKEEVQLLVFGLT	3797
IEDSDTYICEVEDQK	1143
DTYICEVEDQKEEVQLLV	1648
DQGNFPLIIKNLKIE	635
VEDQKEEVQLLVFGL	3816
ICEVEDQKEEVQLLVFGL	3898
VQLLVFGLTANSDTHLLQ	673
IIKNLKIEDSDTYICEVE	751
FGLTANSDTHLLQGQ	625
LIIKNLKIEDSDTYI	542
LWDQGNFPLIIKNLK	502
KNLKIEDSDTYICEVEDQ	708
SDTYICEVEDQKEEV	993
VFGLTANSDTHLLQG	532
VQLLVFGLTANSDTH	1006
LIIKNLKIEDSDTYICEV	634
NSDTHLLQGQSLTLTLES	1726
HLLQGQSLTLTLESP	1277
EEVQLLVFGLTANSD	6423
IIKNLKIEDSDTYIC	664
QGNFPLIIKNLKIEDSDT	564
ICEVEDQKEEVQLLV	1084
YICEVEDQKEEVQLL	1064
QKEEVQLLVFGLTAN	3770
IKNLKIEDSDTYICE	568
DQKEEVQLLVFGLTANSD	3317
EVQLLVFGLTANSDTHLL	667

---

number of radioactive decays (counts) counted: recorded values
- target.or.system: HIV-1LAI envelope gp120 (Human immunodeficiency virus type 1 group M subtype B, UniProt P03377)
- Type: binding
- experimental.parameters: human CD4 21-mer scan; empty control 2075
endpoint: number of radioactive decays (counts) counted

biopolymer.sequence	reported.result
ESNIKVLPTWSTPVQPMALIV [human CD4 381-401]	1992
WITFDLKNKEVSVKRVTQDPK	2126
FSFPLAFTVEKLTGSGELWWQ	9673
MNRGVPFRRLLLVLQLALLPA [human CD4 1-21]	3587
LEAKTGKLHQEVNLVVMRATQ [human CD4 301-321]	1729
PKLMLSLKLENKEAKVSKREK [human CD4 336-356]	1656

---

- target.or.system: HIV-1LAI envelope gp120 (Human immunodeficiency virus type 1 group M subtype B)
- Assay type: binding
- experimental.parameters: CXCR4 18-mer scan; empty control 412
radioactive counts recorded in twenty minutes vs 500 counts: at or above is T, below is F.

biopolymer.sequence	target.or.system	label.value
FYPNDLWVVVFQFQHIMV [CXCR4 segment 189-206]	HIV-1LAI envelope gp120 (Human immunodeficiency virus type 1 group M subtype B)	T
IPDFIFANVSEADDRYIC	HIV-1LAI envelope gp120 (Human immunodeficiency virus type 1 group M subtype B)	T
QRPRKLLAEKVVYVGVWI	HIV-1LAI envelope gp120 (Human immunodeficiency virus type 1 group M subtype B)	T
LTSVSRGSSLKILSKGKR	HIV-1LAI envelope gp120 (Human immunodeficiency virus type 1 group M subtype B)	T
FQHIMVGLILPGIVILSC	HIV-1LAI envelope gp120 (Human immunodeficiency virus type 1 group M subtype B)	T
LLFVITLPFWAVDAVANW	HIV-1LAI envelope gp120 (Human immunodeficiency virus type 1 group M subtype B)	F

The measured values listed here are drawn from patent US20030068615A1.
